Assay: viability loss of HPDE-C7K cells – cell-based, fluorescence, HTS, primary screen (AID 431);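 further: 0% = DMSO solvent wells and 100% = doxorubicin-treated wells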
Conditions: HPDE-C7K KRASV12 cells, Alamar Blue viability, 48 h; at 10 µM; stronger effect = higher value
The whole screen tested about 63,000 compounds, of which about 1,100 (1.7%) were called active. Shown is part of a subset that was picked to be rich in actives. Results with a measured potency or affinity are listed apart.
readout: cytotoxicity (%)
Give the value, in units of %, as a plain number.

Guide cases for cytotoxicity, answers given:
Per the records, this compound ( "CCOC(=O)N1CCN(C2=CC(=O)OC23CCCCC3)CC1" ) has cytotoxicity equal to 3.3

Per the records, this compound ( "CN1CCN(Cc2ccc(OCc3ccccc3)cc2)CC1" ) has cytotoxicity equal to 33.9

Per the records, this compound ( "COc1ccccc1N1CCN(C(=O)C2CCN(S(=O)(=O)c3ccc(Cl)cc3)CC2)CC1" ) has cytotoxicity equal to -11.9

---
Per the records, this compound ( "O=C(O)c1[nH]c2ccc(Cl)cc2c1CC(=O)N1CCN(C(=O)c2ccco2)CC1" ) has cytotoxicity equal to 3.2

Per the records, this compound ( "O=C(O)c1[nH]c2ccc(Cl)cc2c1CC(=O)N1CCN(c2ccccc2)CC1" ) has cytotoxicity equal to 8
